Cited source: patent US8012995B1

Molecular target: JNK2 (Homo sapiens, UniProt P45984)
Sequence (P45984 whole entry, species assumed): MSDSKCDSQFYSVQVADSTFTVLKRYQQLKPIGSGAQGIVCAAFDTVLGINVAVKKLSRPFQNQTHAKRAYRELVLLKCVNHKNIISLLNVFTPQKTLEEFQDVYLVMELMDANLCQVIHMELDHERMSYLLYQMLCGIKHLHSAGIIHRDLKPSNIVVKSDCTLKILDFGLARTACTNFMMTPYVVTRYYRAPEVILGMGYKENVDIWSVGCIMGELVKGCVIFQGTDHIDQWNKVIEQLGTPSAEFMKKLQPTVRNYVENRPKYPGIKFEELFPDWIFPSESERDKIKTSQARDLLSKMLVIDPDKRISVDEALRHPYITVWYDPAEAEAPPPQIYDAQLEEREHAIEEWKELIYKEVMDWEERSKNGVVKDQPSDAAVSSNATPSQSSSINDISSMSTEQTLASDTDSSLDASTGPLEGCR
Experiment: JNK2 in vitro assay (SPA, GST-c-Jun phosphorylation)
Assay type: biochemical
Settings: amount necessary to achieve 50% inhibition, GST-c-Jun substrate
pIC50: −log10 of the molar value.

Smiles input	pIC50
O=C(NCc1ccc(S(=O)(=O)N2CCC(Nc3cccc(S(=O)(=O)CCO)c3)CC2)s1)c1ccc(Cl)cc1	5.65
COc1cccc(NC2CCN(S(=O)(=O)c3ccc(CNC(=O)c4ccc([N+](=O)[O-])cc4)s3)CC2)c1	6.66
O=C(NCc1ccc(S(=O)(=O)N2CCC(C(=O)c3ccc(F)cc3F)CC2)s1)c1ccc(Cl)cc1	5.92
O=C(NCc1ccc(S(=O)(=O)N2CCC(n3cnc4ccccc43)CC2)s1)c1ccc(Cl)cc1	6.23
